FYI, the data here is from ChEMBL document CHEMBL4480400.

# system.under.test: Sodium- and chloride-dependent glycine transporter 2 (Homo sapiens)
# Sequence (Q9Y345 whole entry): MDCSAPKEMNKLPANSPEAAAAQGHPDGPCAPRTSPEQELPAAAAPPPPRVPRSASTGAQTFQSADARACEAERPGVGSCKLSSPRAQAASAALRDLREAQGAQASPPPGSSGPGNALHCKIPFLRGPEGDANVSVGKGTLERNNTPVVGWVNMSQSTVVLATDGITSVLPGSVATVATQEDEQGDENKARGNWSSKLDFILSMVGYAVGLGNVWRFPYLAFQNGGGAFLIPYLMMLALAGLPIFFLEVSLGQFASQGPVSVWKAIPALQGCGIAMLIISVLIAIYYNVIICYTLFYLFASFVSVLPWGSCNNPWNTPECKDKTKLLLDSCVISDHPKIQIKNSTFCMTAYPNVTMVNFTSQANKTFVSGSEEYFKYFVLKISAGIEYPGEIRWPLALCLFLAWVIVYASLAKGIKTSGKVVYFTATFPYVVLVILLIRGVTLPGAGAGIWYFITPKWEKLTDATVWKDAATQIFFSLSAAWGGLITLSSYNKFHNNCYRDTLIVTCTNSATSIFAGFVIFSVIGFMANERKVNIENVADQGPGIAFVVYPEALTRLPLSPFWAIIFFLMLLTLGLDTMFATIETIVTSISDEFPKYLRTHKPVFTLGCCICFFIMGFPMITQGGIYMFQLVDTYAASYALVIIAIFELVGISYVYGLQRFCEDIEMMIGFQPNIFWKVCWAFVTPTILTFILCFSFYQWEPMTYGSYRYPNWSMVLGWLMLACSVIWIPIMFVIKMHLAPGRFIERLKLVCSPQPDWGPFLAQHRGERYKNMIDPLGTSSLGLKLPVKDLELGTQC
# method: Inhibition of recombinant human GlyT2a expressed in Xenopus laevis oocytes assessed as reduction in channel current by two-electrode voltage clamp electrophysiology
# Type: cell-based
measure.name: IC50
Quick note: unit goes after the number.

CCCCCCCC/C=C\CCCCCCCC(=O)N[C@H](CCC(=O)O)C(=O)O	3750 nM
CCCCCCCC/C=C\CCCCCCCC(=O)NCC(=O)O [OLEOYL GLYCINE]	500 nM
CCCCCCCC/C=C\CCCCCCCC(=O)N[C@@H](Cc1cnc[nH]1)C(=O)O	130 nM
CCCCCCCC/C=C\CCCCCCCC(=O)N[C@H](CCCCN)C(=O)O.Cl	48.3 nM
CCCCCCCC/C=C\CCCCCCCC(=O)N[C@@H](CCCCN)C(=O)OC	91.3 nM
CCCCCCCC/C=C\CCCCCCCC(=O)N[C@@H](C(=O)O)C(C)C	1000 nM
CCCCCCCC/C=C\CCCCCCCC(=O)N[C@@H](CCCCN)C(=O)O.Cl	25.5 nM

Let us examine a further case.
Qu. IC50 lookup needed for CCCCCCCC/C=C\CCCCCCCC(=O)N[C@H](CC(=O)O)C(=O)O , thanks.
Ans. 1810 nM
